From: paper PMC9989471

Biological target: FadD23 (Mycobacterium tuberculosis, UniProt P9WQ47)
Construct: full-length
Sequence (P9WQ47 whole entry): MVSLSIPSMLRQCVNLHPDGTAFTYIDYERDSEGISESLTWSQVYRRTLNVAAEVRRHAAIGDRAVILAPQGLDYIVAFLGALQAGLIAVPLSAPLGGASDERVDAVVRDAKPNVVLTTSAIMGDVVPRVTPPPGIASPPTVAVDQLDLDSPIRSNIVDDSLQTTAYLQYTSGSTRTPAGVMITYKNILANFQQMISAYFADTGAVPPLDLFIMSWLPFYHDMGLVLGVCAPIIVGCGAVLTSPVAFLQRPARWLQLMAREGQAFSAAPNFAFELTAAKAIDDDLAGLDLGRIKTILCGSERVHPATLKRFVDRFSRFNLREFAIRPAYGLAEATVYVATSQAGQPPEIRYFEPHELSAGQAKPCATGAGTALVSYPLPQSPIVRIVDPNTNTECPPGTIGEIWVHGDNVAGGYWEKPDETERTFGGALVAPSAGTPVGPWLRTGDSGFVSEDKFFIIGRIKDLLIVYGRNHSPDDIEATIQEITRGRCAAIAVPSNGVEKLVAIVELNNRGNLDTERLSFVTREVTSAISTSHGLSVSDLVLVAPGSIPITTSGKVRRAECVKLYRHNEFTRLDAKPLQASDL
Experiment: SPR
Format: binding
pKd: −log10 of the molar value.
propertyMeasured: pKd

Name the recorded pKd of the compound listed here: Nc1ncnc2c1ncn2[C@@H]1O[C@H](COP(=O)(O)OP(=O)(O)OP(=O)(O)O)[C@@H](O)[C@H]1O
~6.00
